experiment: growth suppression of PTEN-deleted HCT116, pilot screen, cell-based, HCT116 clonal line, CellTiter-Glo (AID 824); settings: 60 h, at 10 µM, hits give low values;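 also: 0% = 20 µM Hyamine control and 100% = vehicle cell control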
Records with an inconclusive call do not appear. Activity calls are given as the source filed them.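 The calls were made as follows: active = viability at or below 27.92% in each of two runs, the all-compound median minus 4 SD; inconclusive = no clear call, values can overlap the other calls; inactive = the rest.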
# viability values compiled below

Illustrative cases are given below, each with its answer.
Input: Item under review: CCOC(=O)CCc1c(C)c2c(C)nn(-c3ccccc3)c2[nH]c1=O . Reported viability?
Output: 95.9% (inactive)

Input: Need viability of CCCC(=O)C1=C(O)C(C(=O)OC)C(C)(C)CC1=N (centres undefined) , thanks.
Output: 101% (inactive)

Consider the additional compound presented here.
Input: Given CCC(C)(C(=O)NC1CCCCC1)N(C(=O)C1CCC(=O)N1)c1ccc(C)cc1 (centres undefined) , state its recorded viability.
Output: 92.1% (inactive)
